The reported measurements were obtained from PubChem BioAssay AID1963435.

- Test system: PANC-1 complex spheroid growth, percent test/control
- measurement-notes: Anticancer human tumor PANC-1 cell line growth inhibition [Asc];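 further: spheroids exposed to agents for 7 days; percent viability relative to DMSO vehicle wells taken as 100%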
- run-parameters: second compound 3.16 µM; first compound 0.316 µM; hits give low values
- Source text: Multicellular complex tumor spheroid response to apoptosis pathway targeting inhibitors Alrizomadlin, Pelcitoclax, and Dasminapant in combination with a variety of drugs and investigational agents in selected tumor cell lines […] Compounds. […] If the clinical Cmax for an agent had not been determined, the highest concentration tested was 10 microM. […]
Hi there, I'd appreciate the recorded viability, T/C for every entry that follows.
Numbers only, in %.

Quick request: viability, T/C for each listed item, please.
1. C#Cc1c(F)ccc2cc(O)cc(-c3ncc4c(N5CC6CCC(C5)N6)nc(OCC56CCCN5CC(F)C6)nc4c3F)c12 (stereo not drawn) + Cc1c(S(C)(=O)=O)c(-c2cc(F)cc(N3CCN(c4ccc(NS(=O)(=O)c5ccc(NC(CCN6CCC(C(=O)OCCCP(=O)(O)O)CC6)CSc6ccccc6)c(S(=O)(=O)C(F)(F)F)c5)cc4)CC3)c2)c(-c2ccc(Cl)cc2)n1C(C)C
2. CNC(C)C(=O)NC1CN(S(=O)(=O)c2cccc(S(=O)(=O)N3CCC4CCC(C(=O)NC(c5ccccc5)c5ccccc5)N4C(=O)C(NC(=O)C(C)NC)C3)c2)CCC2CCC(C(=O)NC(c3ccccc3)c3ccccc3)N2C1=O (stereo not drawn) + Cc1c(S(C)(=O)=O)c(-c2cc(F)cc(N3CCN(c4ccc(NS(=O)(=O)c5ccc(NC(CCN6CCC(C(=O)OCCCP(=O)(O)O)CC6)CSc6ccccc6)c(S(=O)(=O)C(F)(F)F)c5)cc4)CC3)c2)c(-c2ccc(Cl)cc2)n1C(C)C

[59.9, 98.5]

Quick request: viability, T/C for each listed item, please.
1. O=C(c1cc(Cc2n[nH]c(=O)c3ccccc23)ccc1F)N1CCN(C(=O)C2CC2)CC1 + Cc1c(S(C)(=O)=O)c(-c2cc(F)cc(N3CCN(c4ccc(NS(=O)(=O)c5ccc(NC(CCN6CCC(C(=O)OCCCP(=O)(O)O)CC6)CSc6ccccc6)c(S(=O)(=O)C(F)(F)F)c5)cc4)CC3)c2)c(-c2ccc(Cl)cc2)n1C(C)C
2. C=CC(=O)N1CCN(c2nc(=O)n(-c3c(C)ccnc3C(C)C)c3nc(-c4c(O)cccc4F)c(F)cc23)C(C)C1 (stereo not drawn) + Cc1c(S(C)(=O)=O)c(-c2cc(F)cc(N3CCN(c4ccc(NS(=O)(=O)c5ccc(NC(CCN6CCC(C(=O)OCCCP(=O)(O)O)CC6)CSc6ccccc6)c(S(=O)(=O)C(F)(F)F)c5)cc4)CC3)c2)c(-c2ccc(Cl)cc2)n1C(C)C
3. CCN1CCN(Cc2ccc(Nc3ncc(F)c(-c4cc(F)c5nc(C)n(C(C)C)c5c4)n3)nc2)CC1 + Cc1c(S(C)(=O)=O)c(-c2cc(F)cc(N3CCN(c4ccc(NS(=O)(=O)c5ccc(NC(CCN6CCC(C(=O)OCCCP(=O)(O)O)CC6)CSc6ccccc6)c(S(=O)(=O)C(F)(F)F)c5)cc4)CC3)c2)c(-c2ccc(Cl)cc2)n1C(C)C
4. COc1c(OCCCN2CCOCC2)ccc2c3n(c(=NC(=O)c4cnc(N)nc4)nc12)CCN3 + Cc1c(S(C)(=O)=O)c(-c2cc(F)cc(N3CCN(c4ccc(NS(=O)(=O)c5ccc(NC(CCN6CCC(C(=O)OCCCP(=O)(O)O)CC6)CSc6ccccc6)c(S(=O)(=O)C(F)(F)F)c5)cc4)CC3)c2)c(-c2ccc(Cl)cc2)n1C(C)C
5. O=C(c1ccc(F)c(F)c1Nc1ccc(I)cc1F)N1CC(O)([C@@H]2CCCCN2)C1 + Cc1c(S(C)(=O)=O)c(-c2cc(F)cc(N3CCN(c4ccc(NS(=O)(=O)c5ccc(NC(CCN6CCC(C(=O)OCCCP(=O)(O)O)CC6)CSc6ccccc6)c(S(=O)(=O)C(F)(F)F)c5)cc4)CC3)c2)c(-c2ccc(Cl)cc2)n1C(C)C
6. C=C(F)C(=O)N1CCN(c2nc(OCC3CCCN3C)nc3c2CCN(c2cccc4cccc(Cl)c24)C3)CC1CC#N (stereo not drawn) + Cc1c(S(C)(=O)=O)c(-c2cc(F)cc(N3CCN(c4ccc(NS(=O)(=O)c5ccc(NC(CCN6CCC(C(=O)OCCCP(=O)(O)O)CC6)CSc6ccccc6)c(S(=O)(=O)C(F)(F)F)c5)cc4)CC3)c2)c(-c2ccc(Cl)cc2)n1C(C)C

1: 106; 2: 104; 3: 123; 4: 53.8; 5: 83.3; 6: 114

* * *

- Test system: PANC-1 complex spheroid growth, percent test/control
- measurement-notes: Anticancer human tumor PANC-1 cell line growth inhibition [Asc];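 further: spheroids exposed to agents for 7 days; percent viability relative to DMSO vehicle wells taken as 100%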
- run-parameters: second compound 0.00316 µM; first compound 3.16 µM; hits give low values
Hi there, I'd appreciate the recorded viability, T/C for every entry that follows.

// solved cases for viability, T/C follow
O=C(c1cc(Cc2n[nH]c(=O)c3ccccc23)ccc1F)N1CCN(C(=O)C2CC2)CC1 + CNC(C)C(=O)NC1CN(S(=O)(=O)c2cccc(S(=O)(=O)N3CCC4CCC(C(=O)NC(c5ccccc5)c5ccccc5)N4C(=O)C(NC(=O)C(C)NC)C3)c2)CCC2CCC(C(=O)NC(c3ccccc3)c3ccccc3)N2C1=O	97.3%
C=C(F)C(=O)N1CCN(c2nc(OCC3CCCN3C)nc3c2CCN(c2cccc4cccc(Cl)c24)C3)CC1CC#N (centres undefined) + CNC(C)C(=O)NC1CN(S(=O)(=O)c2cccc(S(=O)(=O)N3CCC4CCC(C(=O)NC(c5ccccc5)c5ccccc5)N4C(=O)C(NC(=O)C(C)NC)C3)c2)CCC2CCC(C(=O)NC(c3ccccc3)c3ccccc3)N2C1=O	91.6%
C=CC(=O)N1CCN(c2nc(=O)n(-c3c(C)ccnc3C(C)C)c3nc(-c4c(O)cccc4F)c(F)cc23)C(C)C1 (centres undefined) + CNC(C)C(=O)NC1CN(S(=O)(=O)c2cccc(S(=O)(=O)N3CCC4CCC(C(=O)NC(c5ccccc5)c5ccccc5)N4C(=O)C(NC(=O)C(C)NC)C3)c2)CCC2CCC(C(=O)NC(c3ccccc3)c3ccccc3)N2C1=O	118%

Note: attention shifts to another entry.
# viability, T/C lookup, item C#Cc1c(F)ccc2cc(O)cc(-c3ncc4c(N5CC6CCC(C5)N6)nc(OCC56CCCN5CC(F)C6)nc4c3F)c12 (centres undefined) + CNC(C)C(=O)NC1CN(S(=O)(=O)c2cccc(S(=O)(=O)N3CCC4CCC(C(=O)NC(c5ccccc5)c5ccccc5)N4C(=O)C(NC(=O)C(C)NC)C3)c2)CCC2CCC(C(=O)NC(c3ccccc3)c3ccccc3)N2C1=O
91%

* * *

Hi there, I'd appreciate the recorded viability, T/C for every entry that follows.
- Test system: PANC-1 complex spheroid growth, percent test/control
- measurement-notes: Anticancer human tumor PANC-1 cell line growth inhibition [Asc];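 further: spheroids exposed to agents for 7 days; percent viability relative to DMSO vehicle wells taken as 100%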
- run-parameters: second compound 0.0316 µM; first compound 0.316 µM; hits give low values

Quick request: viability, T/C for each listed item, please.
1. O=C(c1ccc(F)c(F)c1Nc1ccc(I)cc1F)N1CC(O)([C@@H]2CCCCN2)C1 + Cc1c(S(C)(=O)=O)c(-c2cc(F)cc(N3CCN(c4ccc(NS(=O)(=O)c5ccc(NC(CCN6CCC(C(=O)OCCCP(=O)(O)O)CC6)CSc6ccccc6)c(S(=O)(=O)C(F)(F)F)c5)cc4)CC3)c2)c(-c2ccc(Cl)cc2)n1C(C)C
2. O=C(c1cc(Cc2n[nH]c(=O)c3ccccc23)ccc1F)N1CCN(C(=O)C2CC2)CC1 + CNC(C)C(=O)NC1CN(S(=O)(=O)c2cccc(S(=O)(=O)N3CCC4CCC(C(=O)NC(c5ccccc5)c5ccccc5)N4C(=O)C(NC(=O)C(C)NC)C3)c2)CCC2CCC(C(=O)NC(c3ccccc3)c3ccccc3)N2C1=O
3. C#Cc1c(F)ccc2cc(O)cc(-c3ncc4c(N5CC6CCC(C5)N6)nc(OCC56CCCN5CC(F)C6)nc4c3F)c12 (stereo not drawn) + CNC(C)C(=O)NC1CN(S(=O)(=O)c2cccc(S(=O)(=O)N3CCC4CCC(C(=O)NC(c5ccccc5)c5ccccc5)N4C(=O)C(NC(=O)C(C)NC)C3)c2)CCC2CCC(C(=O)NC(c3ccccc3)c3ccccc3)N2C1=O

["93%", "96.7%", "76.6%"]

* * *

- System: PANC-1 complex spheroid growth, percent test/control
- measurement-notes: Anticancer human tumor PANC-1 cell line growth inhibition [Asc];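 further: spheroids exposed to agents for 7 days; percent viability relative to DMSO vehicle wells taken as 100%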
- run-parameters: second compound 0.0949 µM; first compound 0.0316 µM; hits give low values
Hi there, I'd appreciate the recorded viability, T/C for every entry that follows.
One number for each entry, in %.

O=C(c1ccc(F)c(F)c1Nc1ccc(I)cc1F)N1CC(O)([C@@H]2CCCCN2)C1 + CCN1C(C(=O)NC23CCC(C(=O)O)(CC2)CC3)C(c2cccc(Cl)c2F)C2(C(=O)Nc3cc(Cl)ccc32)C12CCCCC2	88.4
C#Cc1c(F)ccc2cc(O)cc(-c3ncc4c(N5CC6CCC(C5)N6)nc(OCC56CCCN5CC(F)C6)nc4c3F)c12 (stereo not given) + CCN1C(C(=O)NC23CCC(C(=O)O)(CC2)CC3)C(c2cccc(Cl)c2F)C2(C(=O)Nc3cc(Cl)ccc32)C12CCCCC2	94
NC1CCC(NC2CC2c2ccccc2)CC1 (stereo not given) + CCN1C(C(=O)NC23CCC(C(=O)O)(CC2)CC3)C(c2cccc(Cl)c2F)C2(C(=O)Nc3cc(Cl)ccc32)C12CCCCC2	97.7
Cn1ncnc1[C@H]1c2n[nH]c(=O)c3cc(F)cc(c23)N[C@@H]1c1ccc(F)cc1 + CCN1C(C(=O)NC23CCC(C(=O)O)(CC2)CC3)C(c2cccc(Cl)c2F)C2(C(=O)Nc3cc(Cl)ccc32)C12CCCCC2	108
COc1c(OCCCN2CCOCC2)ccc2c3n(c(=NC(=O)c4cnc(N)nc4)nc12)CCN3 + CCN1C(C(=O)NC23CCC(C(=O)O)(CC2)CC3)C(c2cccc(Cl)c2F)C2(C(=O)Nc3cc(Cl)ccc32)C12CCCCC2	92.5

Quick request: viability, T/C for each listed item, please.
1. CCN1CCN(Cc2ccc(Nc3ncc(F)c(-c4cc(F)c5nc(C)n(C(C)C)c5c4)n3)nc2)CC1 + CCN1C(C(=O)NC23CCC(C(=O)O)(CC2)CC3)C(c2cccc(Cl)c2F)C2(C(=O)Nc3cc(Cl)ccc32)C12CCCCC2
2. C=C(F)C(=O)N1CCN(c2nc(OCC3CCCN3C)nc3c2CCN(c2cccc4cccc(Cl)c24)C3)CC1CC#N (stereo not given) + CCN1C(C(=O)NC23CCC(C(=O)O)(CC2)CC3)C(c2cccc(Cl)c2F)C2(C(=O)Nc3cc(Cl)ccc32)C12CCCCC2
3. CNC(C)C(=O)NC1CN(S(=O)(=O)c2cccc(S(=O)(=O)N3CCC4CCC(C(=O)NC(c5ccccc5)c5ccccc5)N4C(=O)C(NC(=O)C(C)NC)C3)c2)CCC2CCC(C(=O)NC(c3ccccc3)c3ccccc3)N2C1=O (stereo not given) + CCN1C(C(=O)NC23CCC(C(=O)O)(CC2)CC3)C(c2cccc(Cl)c2F)C2(C(=O)Nc3cc(Cl)ccc32)C12CCCCC2
4. O=C(c1cc(Cc2n[nH]c(=O)c3ccccc23)ccc1F)N1CCN(C(=O)C2CC2)CC1 + CCN1C(C(=O)NC23CCC(C(=O)O)(CC2)CC3)C(c2cccc(Cl)c2F)C2(C(=O)Nc3cc(Cl)ccc32)C12CCCCC2
5. C=CC(=O)N1CCN(c2nc(=O)n(-c3c(C)ccnc3C(C)C)c3nc(-c4c(O)cccc4F)c(F)cc23)C(C)C1 (stereo not given) + CCN1C(C(=O)NC23CCC(C(=O)O)(CC2)CC3)C(c2cccc(Cl)c2F)C2(C(=O)Nc3cc(Cl)ccc32)C12CCCCC2

105
105
89.4
100
111
